Listed binders paired with reported kon
Target: T1, cynomolgus monkey serum albumin (cynomolgus monkey, UniProt A2V9Z4 25-608)
T1 construct: Immobilised on SPR chips; also called cynoSA; cynomolgus albumin
Assay: SPR Biacore 8K+ SCK, albumin on chip, pH 5.5
API: value field is a number in M⁻¹ s⁻¹; no unit string.

binder: Alb23 G33A/S101A (VHH, VHH alone) VHH: EVQLLESGGGLVQPGGSLRLSCAASGFTFRSFAMSWVRQAPGKGPEWVSSISGSGSDTLYADSVKGRFTISRDNSKNTLYLQMNSLRPEDTAVYYCTIGGALSRSSQGTLVTVSS
unit-info: M⁻¹ s⁻¹
kon: 1.15e+06

Okay, now this binder:
Ask | // fetch kon given entry Alb23 L59A (VHH, VHH alone) VHH: EVQLLESGGGLVQPGGSLRLSCAASGFTFRSFGMSWVRQAPGKGPEWVSSISGSGSDTAYADSVKGRFTISRDNSKNTLYLQMNSLRPEDTAVYYCTIGGSLSRSSQGTLVTVSS
Reply | 940000
